# system-name: hAC1 (Homo sapiens, UniProt Q08828)
# Construct: expressed in transfected cells
# Sequence (Q08828 whole entry): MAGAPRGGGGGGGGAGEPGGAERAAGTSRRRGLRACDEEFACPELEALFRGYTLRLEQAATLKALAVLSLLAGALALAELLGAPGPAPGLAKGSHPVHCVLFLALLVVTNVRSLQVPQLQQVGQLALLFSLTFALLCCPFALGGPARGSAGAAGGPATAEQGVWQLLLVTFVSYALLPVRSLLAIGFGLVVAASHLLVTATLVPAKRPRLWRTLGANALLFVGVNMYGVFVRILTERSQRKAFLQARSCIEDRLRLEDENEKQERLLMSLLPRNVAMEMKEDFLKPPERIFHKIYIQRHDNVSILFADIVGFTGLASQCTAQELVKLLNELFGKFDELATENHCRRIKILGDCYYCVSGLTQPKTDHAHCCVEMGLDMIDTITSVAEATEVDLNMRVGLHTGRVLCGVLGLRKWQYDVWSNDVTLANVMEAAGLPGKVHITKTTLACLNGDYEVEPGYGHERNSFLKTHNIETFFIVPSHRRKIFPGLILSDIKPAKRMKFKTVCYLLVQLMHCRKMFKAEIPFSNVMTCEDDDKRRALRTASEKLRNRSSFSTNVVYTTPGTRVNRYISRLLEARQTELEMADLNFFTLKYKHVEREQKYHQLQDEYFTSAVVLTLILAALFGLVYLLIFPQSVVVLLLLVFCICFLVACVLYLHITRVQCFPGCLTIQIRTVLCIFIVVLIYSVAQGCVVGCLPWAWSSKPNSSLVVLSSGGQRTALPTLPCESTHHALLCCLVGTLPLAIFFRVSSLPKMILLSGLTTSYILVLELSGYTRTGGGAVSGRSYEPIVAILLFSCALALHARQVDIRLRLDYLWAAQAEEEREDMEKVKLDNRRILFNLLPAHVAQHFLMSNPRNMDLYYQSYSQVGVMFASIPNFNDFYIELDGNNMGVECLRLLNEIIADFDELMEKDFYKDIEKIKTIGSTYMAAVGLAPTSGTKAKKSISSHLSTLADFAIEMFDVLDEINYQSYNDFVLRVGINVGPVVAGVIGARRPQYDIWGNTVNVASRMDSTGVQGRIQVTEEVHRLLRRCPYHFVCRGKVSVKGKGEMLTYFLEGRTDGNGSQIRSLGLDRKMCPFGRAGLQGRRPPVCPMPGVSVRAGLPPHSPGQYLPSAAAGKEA
# run-description: Cyclic AMP accumulation in HEK cells stably expressing AC1, stimulated with A23187 (HTRF)
# Type: cell-based
# applied-conditions: HEK293; HEK-AC1 cells, 30 μM

# smiles-data, system-name, unit-of-measurement, inhibition at 30 µM
data = [
    ("O=C(Nc1nnc(-c2ccc3c(c2)CCCC3)o1)c1ccc(Cl)cc1", "hAC1 (Homo sapiens, UniProt Q08828)", "%", 99),
    ("COc1cc(C(=O)Nc2nnc(C3CCCCC3)o2)cc(C(F)(F)F)c1", "hAC1 (Homo sapiens, UniProt Q08828)", "%", 90),
    ("Cc1ccc(C(=O)Nc2nnc(C3CCCCC3)o2)cc1", "hAC1 (Homo sapiens, UniProt Q08828)", "%", 78),
    ("O=C(Nc1nnc(C2CCCCC2)o1)c1cccc(C(F)(F)F)c1", "hAC1 (Homo sapiens, UniProt Q08828)", "%", 99),
    ("O=C(Nc1nnc(-c2ccc3c(c2)OCCO3)o1)c1cccc(C(F)(F)F)c1", "hAC1 (Homo sapiens, UniProt Q08828)", "%", 100),
    ("COc1ccc(C(=O)Nc2nnc(-c3ccc4c(c3)CCCC4)o2)cc1", "hAC1 (Homo sapiens, UniProt Q08828)", "%", 94),
    ("CC(C)Oc1ccc(C(=O)Nc2nnc(-c3ccc4c(c3)CCCC4)o2)cc1", "hAC1 (Homo sapiens, UniProt Q08828)", "%", 77),
    ("O=C(Nc1nnc(-c2ccc3c(c2)CCCC3)o1)c1cccc(F)c1", "hAC1 (Homo sapiens, UniProt Q08828)", "%", 99),
    ("CSc1cccc(C(=O)Nc2nnc(-c3cccs3)o2)c1", "hAC1 (Homo sapiens, UniProt Q08828)", "%", 84),
    ("O=C(Nc1nnc(-c2cccs2)o1)c1ccc(Br)cc1", "hAC1 (Homo sapiens, UniProt Q08828)", "%", 81),
    ("O=C(Nc1nnc(C2CCCCC2)o1)c1ccccc1", "hAC1 (Homo sapiens, UniProt Q08828)", "%", 65),
    ("Cc1ccc(C(=O)Nc2nnc(-c3ccc(F)cc3)o2)cc1C(F)(F)F", "hAC1 (Homo sapiens, UniProt Q08828)", "%", 93),
    ("O=C(Nc1nnc(-c2ccc3c(c2)CCCC3)o1)c1ccc(Br)cc1", "hAC1 (Homo sapiens, UniProt Q08828)", "%", 74),
]
